system name: Acetylcholinesterase (Homo sapiens)
Sequence (P22303 whole entry): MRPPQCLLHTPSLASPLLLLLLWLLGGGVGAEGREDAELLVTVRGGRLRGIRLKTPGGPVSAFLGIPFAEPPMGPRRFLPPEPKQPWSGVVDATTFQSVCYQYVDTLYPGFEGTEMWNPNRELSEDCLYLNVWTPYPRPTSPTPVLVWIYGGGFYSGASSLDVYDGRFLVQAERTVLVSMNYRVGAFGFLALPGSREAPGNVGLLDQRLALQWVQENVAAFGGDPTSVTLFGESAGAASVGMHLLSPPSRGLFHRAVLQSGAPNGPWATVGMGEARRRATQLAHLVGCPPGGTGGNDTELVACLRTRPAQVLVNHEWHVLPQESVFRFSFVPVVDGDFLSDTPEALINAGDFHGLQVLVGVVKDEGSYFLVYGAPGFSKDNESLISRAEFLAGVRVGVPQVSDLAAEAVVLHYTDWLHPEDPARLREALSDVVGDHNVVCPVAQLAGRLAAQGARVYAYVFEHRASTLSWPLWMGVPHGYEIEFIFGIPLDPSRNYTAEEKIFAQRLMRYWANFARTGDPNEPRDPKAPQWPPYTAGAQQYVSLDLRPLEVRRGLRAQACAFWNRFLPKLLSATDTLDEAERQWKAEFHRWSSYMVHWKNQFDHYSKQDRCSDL
method summary: Inhibition of AChE by microplate assay

smiles notation | IC50 / µM
CO[C@@H]1[C@@H](O)[C@H]2c3cc4c(cc3CN3CC=C([C@H]1O)[C@H]23)OCO4 | 86
